Attribution: ChEMBL document CHEMBL4390647

The following compounds are listed with their measured MIC values.
# System: Candida albicans
# assay.remarks: Antifungal activity against Candida albicans ATCC 7754 after 72 hrs by agar dilution method
# Format: functional
# applied.conditions: ATCC 7754, 72 h
recorded.metric: MIC (µM)

INSERT INTO measurements (compound, observed_measurement) VALUES
  ('CC(=O)OC[C@H]1O[C@@H](n2cc(COc3ccc4c(c3)OC(N)=C(C#N)C4c3ccc(Br)cc3)nn2)[C@H](OC(C)=O)[C@@H](OC(C)=O)[C@@H]1OC(C)=O (stereo not given in full)', 3.12),
  ('CC(=O)OC[C@H]1O[C@@H](n2cc(COc3ccc4c(c3)OC(N)=C(C#N)C4c3ccccc3[N+](=O)[O-])nn2)[C@H](OC(C)=O)[C@@H](OC(C)=O)[C@@H]1OC(C)=O (stereo not given in full)', 50),
  ('CC(=O)OC[C@H]1O[C@@H](n2cc(COc3ccc4c(c3)OC(N)=C(C#N)C4c3ccccc3Cl)nn2)[C@H](OC(C)=O)[C@@H](OC(C)=O)[C@@H]1OC(C)=O (stereo not given in full)', 25),
  ('CC(=O)OC[C@H]1O[C@@H](n2cc(COc3ccc4c(c3)OC(N)=C(C#N)C4c3cccc(Cl)c3Cl)nn2)[C@H](OC(C)=O)[C@@H](OC(C)=O)[C@@H]1OC(C)=O (stereo not given in full)', 25),
  ('CC(=O)OC[C@H]1O[C@@H](n2cc(COc3ccc4c(c3)OC(N)=C(C#N)C4c3ccc(N(C)C)cc3)nn2)[C@H](OC(C)=O)[C@@H](OC(C)=O)[C@@H]1OC(C)=O (stereo not given in full)', 12.5);

* * *

# Tested on: Staphylococcus aureus
# assay.remarks: Antibacterial activity against Staphylococcus aureus MRSA198 clinical isolate-1 measured after 18 to 20 hrs by microbroth dilution method
# Format: functional
# applied.conditions: MRSA198 isolate-1
Entries and their MIC
recorded.metric: MIC (µM)

INSERT INTO results (compound, recorded_metric, observed_measurement) VALUES
  ('COc1ccc(C2C(C#N)=C(N)Oc3cc(OCc4cn([C@@H]5O[C@H](COC(C)=O)[C@@H](OC(C)=O)[C@H](OC(C)=O)[C@H]5OC(C)=O)nn4)ccc32)cc1 (stereo partly specified)', 'MIC', 12.5),
  ('CC(=O)OC[C@H]1O[C@@H](n2cc(COc3ccc4c(c3)OC(N)=C(C#N)C4c3cccc([N+](=O)[O-])c3)nn2)[C@H](OC(C)=O)[C@@H](OC(C)=O)[C@@H]1OC(C)=O (stereo partly specified)', 'MIC', 1.56),
  ('COc1cccc(C2C(C#N)=C(N)Oc3cc(OCc4cn([C@@H]5O[C@H](COC(C)=O)[C@@H](OC(C)=O)[C@H](OC(C)=O)[C@H]5OC(C)=O)nn4)ccc32)c1OC (stereo partly specified)', 'MIC', 12.5),
  ('COc1ccc(C2C(C#N)=C(N)Oc3cc(OCc4cn([C@@H]5O[C@H](COC(C)=O)[C@@H](OC(C)=O)[C@H](OC(C)=O)[C@H]5OC(C)=O)nn4)ccc32)c(OC)c1 (stereo partly specified)', 'MIC', 1.56),
  ('CC(=O)OC[C@H]1O[C@@H](n2cc(COc3ccc4c(c3)OC(N)=C(C#N)C4c3ccc(C(C)C)cc3)nn2)[C@H](OC(C)=O)[C@@H](OC(C)=O)[C@@H]1OC(C)=O (stereo partly specified)', 'MIC', 400),
  ('COc1cc(OC)cc(C2C(C#N)=C(N)Oc3cc(OCc4cn([C@@H]5O[C@H](COC(C)=O)[C@@H](OC(C)=O)[C@H](OC(C)=O)[C@H]5OC(C)=O)nn4)ccc32)c1 (stereo partly specified)', 'MIC', 400);
